test: Cytotoxicity assay (CellTiter-Glo cell viability, 72 hours); format: cell-based; conditions: African green monkey
*1 amine or outer side, *2 acyl side, *3 side chain or, on linkers, in order; H or OH if unused. Where a SMILES comes first, the peptide text is derived from it. Bridges are numbered along the chain shown (N, C = ends). [ ]: non-standard residue; d: D form. The star is where a group is joined. ξ: configuration not given here. NH(1,3-benzodioxol-5-yl) = c1cc2c(cc1N*)OCO2; Phe(3,5-F2) = N[C@@H](Cc1cc(F)cc(F)c1)C(=O)O; NH(4-OCF3-phenyl) = FC(F)(F)Oc1ccc(N*)cc1; Morpholine(3S-CO) = O=C(O)[C@@H]1COCCN1; Pro(4S-Me) = C[C@@H]1CN[C@H](C(=O)O)C1; NH(4-Cl-2-F-phenyl) = Fc1cc(Cl)ccc1N*; Pro(4R-Me) = C[C@H]1CN[C@H](C(=O)O)C1; Hyp = O=C(O)[C@@H]1C[C@@H](O)CN1; NH(4-Et-phenyl) = CCc1ccc(N*)cc1; NMeT = CN[C@H](C(=O)O)[C@@H](C)O; aThr = C[C@H](O)[C@H](N)C(=O)O; Pip = O=C(O)[C@@H]1CCCCN1; NMeA = CN[C@@H](C)C(=O)O; CO = O=C([*:1])[*:2]; ξP = O=C(O)C1CCCN1
measurement-type: IC50 at 72 h

[Q] For the compound C[C@@H]1C[C@H]2C(=O)O[C@@H](C)[C@H](NC(=O)[C@H](Cc3cc(F)cc(F)c3)NC(=O)Nc3ccc(Cl)cc3F)C(=O)N3CCC[C@H]3C(=O)N3CCCC[C@H]3C(=O)N[C@@H](C)C(=O)N2C1 [Compound 307] ({NH(4-Cl-2-F-phenyl)-CO}-[Phe(3,5-F2)][aThr]P[Pip]A[Pro(4R-Me)]; ester 2-C) , give its reported IC50 at 72 h.
[A] 9.5 µM

[Q] Look up IC50 at 72 h of C[C@@H]1C[C@H]2C(=O)O[C@@H](C)[C@H](NC(=O)[C@H](Cc3cc(F)cc(F)c3)NC(=O)Nc3ccc(Cl)cc3F)C(=O)N3C[C@H](O)C[C@H]3C(=O)N3CCCC[C@H]3C(=O)N[C@@H](C)C(=O)N2C1 [Compound 329] ({NH(4-Cl-2-F-phenyl)-CO}-[Phe(3,5-F2)][aThr][Hyp][Pip]A[Pro(4R-Me)]; ester 2-C) and report it.
[A] 24.5 µM

[Q] Quick one: give measured IC50 at 72 h for C[C@@H]1C[C@H]2C(=O)OC[C@H](NC(=O)[C@H](Cc3cc(F)cc(F)c3)NC(=O)Nc3ccc4c(c3)OCO4)C(=O)N3C[C@H](O)C[C@H]3C(=O)N3CCOC[C@H]3C(=O)N[C@@H](C)C(=O)N2C1 [Compound 318] ({NH(1,3-benzodioxol-5-yl)-CO}-[Phe(3,5-F2)]S[Hyp][Morpholine(3S-CO)]A[Pro(4R-Me)]; ester 2-C)
[A] > 100 µM

[Q] Output measured IC50 at 72 h for this item: C[C@@H]1NC(=O)[C@H](C)N(C)C(=O)[C@@H]2CCCN2C(=O)[C@@H](NC(=O)[C@H](Cc2ccccc2)NC(=O)Nc2ccc(OC(F)(F)F)cc2)COC(=O)C2CCCN2C1=O (stereo partly drawn) [Compound 213] ({NH(4-OCF3-phenyl)-CO}-FSP[NMeA]A[ξP]; ester 2-C)
[A] 51.8 µM

[Q] Could you please provide reported IC50 at 72 h for CCc1ccc(NC(=O)N[C@@H](Cc2cc(F)cc(F)c2)C(=O)N[C@@H]2C(=O)N3CCC[C@H]3C(=O)N(C)[C@@H]([C@@H](C)O)C(=O)N[C@@H](C)C(=O)N3C[C@@H](C)C[C@H]3C(=O)O[C@H]2C)cc1 [Compound 37] ({NH(4-Et-phenyl)-CO}-[Phe(3,5-F2)][aThr]P[NMeT]A[Pro(4S-Me)]; ester 2-C) ? Thanks!
[A] 33.8 µM

[Q] Could you please provide reported IC50 at 72 h for CCc1ccc(NC(=O)N[C@@H](Cc2cc(F)cc(F)c2)C(=O)N[C@@H]2C(=O)N3CCC[C@H]3C(=O)N(C)[C@@H]([C@@H](C)O)C(=O)N[C@@H](C)C(=O)N3C[C@H](C)C[C@H]3C(=O)O[C@H]2C)cc1 [Compound 42] ({NH(4-Et-phenyl)-CO}-[Phe(3,5-F2)][aThr]P[NMeT]A[Pro(4R-Me)]; ester 2-C) ? Thanks!
[A] 24.9 µM
